- System: Brain
- RUN DESCRIPTION: Biodistribution in Sprague-Dawley rat whole brain at 1 to 3 MBq, iv after 2 mins by gamma counting
- Assay type: ADME, organism-based
- RUN CONDITIONS: in vivo
Mark Fulfilled for Drug uptake under 0.5 % ID/g, Not fulfilled if at or over.

Hi there! Is Drug uptake for CCCCCCN(CCCCCC)C(=O)C1CCCc2c1c1ccccc1n2CC[18F] (stereo not given) below 0.5 % ID/g, do you know?
Fulfilled

Report whether reported Drug uptake is lower than 0.5 % ID/g (strictly) for CC(C)N(C)C(=O)C1CCCc2c1c1ccccc1n2CC[18F] (stereo not given)
Not fulfilled

Confirm or reject: Drug uptake of `CCN(CC)C(=O)[C@@H]1CCCc2c1c1c(OC)cccc1n2CC[18F]` lies strictly below 0.5 % ID/g
Not fulfilled

A record lists CCN(CC)C(=O)C1CCCc2c1c1cc(OC)ccc1n2CC[18F] (stereo not given) . Is its Drug uptake below 0.5 % ID/g?
Fulfilled

A record lists O=C(C1CCCc2c1c1ccccc1n2CC[18F])N1CCCCCC1 (stereo not given) . Is its Drug uptake below 0.5 % ID/g?
Fulfilled

Please let me know if CCCN(C)C(=O)C1CCCc2c1c1ccccc1n2CC[18F] (stereo not given) shows Drug uptake below 0.5 % ID/g.
Fulfilled

Input CCN(CC)C(=O)C1CCCc2c1c1ccc(F)cc1n2CC[18F] (stereo not given) ; condition: Drug uptake strictly below 0.5 % ID/g. Does it hold?
Not fulfilled

Determine whether this compound shows Drug uptake lower than 0.5 % ID/g (ties excluded): CCN(CC)C(=O)C1CCCc2c1c1cc(F)ccc1n2CC[18F] (stereo not given)
Not fulfilled

Determine whether this compound shows Drug uptake lower than 0.5 % ID/g (ties excluded): CCC(C)N([11CH3])C(=O)c1cc2ccccc2c(-c2ccccc2Cl)n1 (stereo not given)
Fulfilled

Hello, I'm reviewing records and need to know if Drug uptake of CCOc1ccc2c(c1)c1c(n2CC[18F])CCCC1C(=O)N(CC)CC (stereo not given) is below 0.5 % ID/g. Could you check?
Fulfilled

Is Drug uptake of `CCN(CC)C(=O)[C@H]1CCCc2c1c1c(OC)cccc1n2CC[18F]` strictly below 0.5 % ID/g?
Not fulfilled

I wonder whether CCCN(CC)C(=O)C1CCCc2c1c1ccccc1n2CC[18F] (stereo not given) has Drug uptake below 0.5 % ID/g. Can you tell?
Fulfilled

Is Drug uptake strictly under 0.5 % ID/g for the entry CCN(Cc1ccccc1)C(=O)C1CCCc2c1c1ccccc1n2CC[18F] (stereo not given) ?
Fulfilled

Say whether its Drug uptake is strictly beneath 0.5 % ID/g. Entry: CCN(CC)C(=O)C1CCCc2c1c1cc(OC)c(F)cc1n2CC[18F] (stereo not given)
Fulfilled

Is Drug uptake strictly under 0.5 % ID/g for the entry O=C(C1CCCc2c1c1ccccc1n2CC[18F])N1CCCC1 (stereo not given) ?
Fulfilled

Drug uptake strictly < 0.5 % ID/g for this compound? CC(C)N(C(=O)C1CCCc2c1c1ccccc1n2CC[18F])C(C)C (stereo not given)
Fulfilled

Hi there! Is Drug uptake for `COc1ccc(OC)c(CN(C(=O)C[18F])c2ccccc2Oc2ccccc2)c1` below 0.5 % ID/g, do you know?
Not fulfilled

Lab log: compare recorded Drug uptake with 0.5 % ID/g; is it strictly lower for CN(Cc1ccccc1)C(=O)C1CCCc2c1c1ccccc1n2CC[18F] (stereo not given) ?
Not fulfilled

Please state whether Drug uptake is below 0.5 % ID/g for CCN(CC)C(=O)C1CCCc2c1c1cc(F)c(OC)cc1n2CC[18F] (stereo not given)
Fulfilled

Below 0.5 % ID/g on Drug uptake? Entry CCN(CC)C(=O)C1CCCc2c1c1ccc(OC)cc1n2CC[18F] (stereo not given)
Fulfilled

I wonder whether CCN(CC)C(=O)C1CCCc2c1c1ccccc1n2CC[18F] (stereo not given) has Drug uptake below 0.5 % ID/g. Can you tell?
Not fulfilled

Take the compound CCN(CC)C(=O)C1CCCc2c1c1c(OC)cccc1n2CC[18F] (racemic) and say whether its Drug uptake is less than 0.5 % ID/g.
Not fulfilled

Cited source for all entries: ChEMBL document CHEMBL1944627
